# key: entry, value: IC50
test_system: Beta-lactamase (Escherichia coli (strain K12), UniProt P00811)
Sequence (P00811 whole entry): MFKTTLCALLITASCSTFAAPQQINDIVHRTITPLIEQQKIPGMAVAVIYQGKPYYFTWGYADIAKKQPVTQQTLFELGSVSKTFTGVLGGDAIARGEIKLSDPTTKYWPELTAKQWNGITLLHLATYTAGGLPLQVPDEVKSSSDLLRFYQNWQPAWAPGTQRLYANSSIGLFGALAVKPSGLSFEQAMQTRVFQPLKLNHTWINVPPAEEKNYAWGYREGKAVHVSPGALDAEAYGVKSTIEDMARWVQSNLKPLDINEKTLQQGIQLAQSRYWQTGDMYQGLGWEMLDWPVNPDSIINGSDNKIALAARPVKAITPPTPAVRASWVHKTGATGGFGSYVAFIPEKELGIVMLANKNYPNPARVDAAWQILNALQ
assay_overview: Cell Free Inhibition Assay
assay_context: pH 7; 37 °C

compound: C=CCC1(C(=O)OCc2ccccc2)C(=CC=O)O[C@@H]2CC(=O)N21 (some centres undefined)
test_system: Beta-lactamase (Escherichia coli (strain K12), UniProt P00811)
unit: µM
IC50: 58.8
//
compound: C=CCC1(C(=O)OC)C(=CC=O)O[C@@H]2CC(=O)N21 (some centres undefined)
test_system: Beta-lactamase (Escherichia coli (strain K12), UniProt P00811)
unit: µM
IC50: 36
//
compound: C=CCC(C=O)=C1O[C@@H]2CC(=O)N2C1(CC=C)C(=O)OCc1ccccc1 (some centres undefined)
test_system: Beta-lactamase (Escherichia coli (strain K12), UniProt P00811)
unit: µM
IC50: 95.1
//
compound: O=C(OCc1ccccc1)C1C(=C2COC(CI)C2)O[C@@H]2CC(=O)N12 (some centres undefined)
test_system: Beta-lactamase (Escherichia coli (strain K12), UniProt P00811)
unit: µM
IC50: 6.45

* * *

test_system: Beta-lactamase (Escherichia coli (strain K12), UniProt P00811)
assay_overview: Cell Free Inhibition Assay
assay_context: pH 7; 37 °C
Label key: TRUE means IC50 under 5 µM; FALSE means IC50 of 5 µM or more.

compound: C=CCC(C=O)=C1O[C@@H]2CC(=O)N2C1C(=O)OCc1ccccc1 (stereo partly drawn)
category: FALSE
--
compound: CC1CC(=C2O[C@@H]3CC(=O)N3C2C(=O)O)C(=O)O1 (stereo partly drawn)
category: FALSE
--
compound: C=CCC(C(=O)O)=C1O[C@@H]2CC(=O)N2C1C(=O)OC (stereo partly drawn)
category: TRUE
--
compound: CCCC(C(=O)O)=C1O[C@@H]2CC(=O)N2C1C(=O)OC (stereo partly drawn)
category: TRUE
--
compound: CC(=O)OCC=CCC(C=O)=C1O[C@@H]2CC(=O)N2C1C(=O)OCc1ccccc1 (stereo partly drawn)
category: FALSE
--
compound: O=CC(CC=CCO)=C1O[C@@H]2CC(=O)N2C1C(=O)OCc1ccccc1 (stereo partly drawn)
category: FALSE
--
compound: COC(=O)C1C(=C(CCCc2ccccc2)C(=O)O)O[C@@H]2CC(=O)N12 (stereo partly drawn)
category: TRUE
--
compound: CCCC(C(=O)O)=C1O[C@@H]2CC(=O)N2C1C(=O)O (stereo partly drawn)
category: FALSE

Provenance of the data: BindingDB's records for patent US9120808
